# assayedTarget: T1, human LRRC15 (leucine-rich repeat-containing protein 15), expressed on cells (human, UniProt Q8TF66 22-581)
# T1 construct: Cells: U118MG (endogenous), HCT116-huLRRC15, 3T12-huLRRC15 transfectants, TGFbeta-treated A549, human BM-MSC; also called huLRRC15; endogenous huLRRC15
# T1 sequence: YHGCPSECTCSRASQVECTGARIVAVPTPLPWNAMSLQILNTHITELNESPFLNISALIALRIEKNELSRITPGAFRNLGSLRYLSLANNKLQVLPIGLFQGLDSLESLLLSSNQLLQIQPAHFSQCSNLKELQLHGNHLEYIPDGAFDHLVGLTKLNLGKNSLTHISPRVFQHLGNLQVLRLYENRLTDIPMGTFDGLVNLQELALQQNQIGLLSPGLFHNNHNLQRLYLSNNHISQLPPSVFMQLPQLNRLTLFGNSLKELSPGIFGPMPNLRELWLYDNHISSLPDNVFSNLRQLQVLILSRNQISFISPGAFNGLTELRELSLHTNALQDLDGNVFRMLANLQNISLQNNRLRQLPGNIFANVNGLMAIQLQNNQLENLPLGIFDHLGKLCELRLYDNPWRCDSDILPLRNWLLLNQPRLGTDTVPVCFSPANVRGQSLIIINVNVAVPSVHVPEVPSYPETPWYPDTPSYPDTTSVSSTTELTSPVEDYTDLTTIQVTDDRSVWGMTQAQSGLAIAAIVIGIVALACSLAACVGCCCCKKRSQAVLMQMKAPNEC
# assayNotes: flow cytometry on U118MG cells
# From the text: Isotype control antibodies (mouse or human) were used as appropriate.
endpointLabel: EC50 (nM)

binder: huAD208.4.1 (antibody, V domains shown, Humanized full-length antibody, compared with a huIgG1 isotype control) VH: EVQLVQSGAEVKKPGSSVKVSCKASGFTFTDYYIHWVKQAPGQGLEWIGLVYPYIGGTNYNQKFKGKATLTVDTSTTTAYMEMSSLRSEDTAVYYCARGDNKYDAMDYWGQGTTVTVSS VL: DIVLTQSPDSLAVSLGERATINCRASQSVSTSSYSYMHWYQQKPGQPPKLLIKYASSLESGVPDRFSGSGSGTDFTLTISSLQAEDVAVYYCEQSWEIRTFGGGTKVEIK
endpointLabel: EC50
reportedResult: 0.29

binder: hu139.10 (antibody, V domains shown, Humanized full-length antibody; Compared with a huIgG1 isotype control) VH: EVQLVESGGGLVQPGGSLRLSCAVSGFSLTSYGVHWVRQATGKGLEWLGVIWAGGSTNYNSALMSRLTISKENAKSSVYLQMNSLRAGDTAMYYCATHMITEDYYGMDYWGQGTTVTVSS VL: DIVMTQSPDSLAVSLGERATINCKSSQSLLNSRTRKNYLAWYQQKPGQSPKLLIYWASTRESGVPDRFSGSGSGTDFTLTISSLQAEDVAVYYCKQSYNLPTFGGGTKVEIK
endpointLabel: EC50
reportedResult: 0.28

binder: muAD209.9.1 (antibody, V domains shown, Murine antibody; Compared with a muIgG2a isotype control) VH: QIQLVQSGPELKKPGETVKISCKASGFAITNFGMNWVKQAPGKGLKWMGWINLYTGEPTFADDFKGRFAFSLETSASTAYLQINNLKNEDTVIYFCARKGETYYRYDGFAYWGQGTLVTVSA VL: DIVMTQAAPSVPVTPGESVSISCRSSKSLLHSNGNTHLYWFLQRPGQSPQLLIYRMSNLASGVPDRFSGSGSGTAFTLRISRVEAEDVGVYYCMQLLEYPYTFGGGTKLEIE
endpointLabel: EC50
reportedResult: 0.787

binder: huAD208.14.1 (antibody, V domains shown, Humanized full-length antibody; Compared with a huIgG1 isotype control) VH: EVQLVQSGAEVKKPGSSVKVSCKASGFTFTDYYIHWVKQAPGQGLEWIGLVYPYIGGSSYNQQFKGKATLTVDTSTSTAYMELSSLRSEDTAVYYCARGDNNYDAMDYWGQGTTVTVSS VL: DIVLTQSPDSLAVSLGERATISCRASQSVSTSTYNYMHWYQQKPGQPPKLLVKYASNLESGVPDRFSGSGSGTDFTLTISSLQAEDVAVYYCHHTWEIRTFGGGTKVEIK
endpointLabel: EC50
reportedResult: 5.25
